- tested.system: EGFR (L858R/T790M/C797S) kinase (Homo sapiens, UniProt P00533, C797S/L858R/T790M)
- Sequence (P00533 25-1210 T790M/C797S/L858R): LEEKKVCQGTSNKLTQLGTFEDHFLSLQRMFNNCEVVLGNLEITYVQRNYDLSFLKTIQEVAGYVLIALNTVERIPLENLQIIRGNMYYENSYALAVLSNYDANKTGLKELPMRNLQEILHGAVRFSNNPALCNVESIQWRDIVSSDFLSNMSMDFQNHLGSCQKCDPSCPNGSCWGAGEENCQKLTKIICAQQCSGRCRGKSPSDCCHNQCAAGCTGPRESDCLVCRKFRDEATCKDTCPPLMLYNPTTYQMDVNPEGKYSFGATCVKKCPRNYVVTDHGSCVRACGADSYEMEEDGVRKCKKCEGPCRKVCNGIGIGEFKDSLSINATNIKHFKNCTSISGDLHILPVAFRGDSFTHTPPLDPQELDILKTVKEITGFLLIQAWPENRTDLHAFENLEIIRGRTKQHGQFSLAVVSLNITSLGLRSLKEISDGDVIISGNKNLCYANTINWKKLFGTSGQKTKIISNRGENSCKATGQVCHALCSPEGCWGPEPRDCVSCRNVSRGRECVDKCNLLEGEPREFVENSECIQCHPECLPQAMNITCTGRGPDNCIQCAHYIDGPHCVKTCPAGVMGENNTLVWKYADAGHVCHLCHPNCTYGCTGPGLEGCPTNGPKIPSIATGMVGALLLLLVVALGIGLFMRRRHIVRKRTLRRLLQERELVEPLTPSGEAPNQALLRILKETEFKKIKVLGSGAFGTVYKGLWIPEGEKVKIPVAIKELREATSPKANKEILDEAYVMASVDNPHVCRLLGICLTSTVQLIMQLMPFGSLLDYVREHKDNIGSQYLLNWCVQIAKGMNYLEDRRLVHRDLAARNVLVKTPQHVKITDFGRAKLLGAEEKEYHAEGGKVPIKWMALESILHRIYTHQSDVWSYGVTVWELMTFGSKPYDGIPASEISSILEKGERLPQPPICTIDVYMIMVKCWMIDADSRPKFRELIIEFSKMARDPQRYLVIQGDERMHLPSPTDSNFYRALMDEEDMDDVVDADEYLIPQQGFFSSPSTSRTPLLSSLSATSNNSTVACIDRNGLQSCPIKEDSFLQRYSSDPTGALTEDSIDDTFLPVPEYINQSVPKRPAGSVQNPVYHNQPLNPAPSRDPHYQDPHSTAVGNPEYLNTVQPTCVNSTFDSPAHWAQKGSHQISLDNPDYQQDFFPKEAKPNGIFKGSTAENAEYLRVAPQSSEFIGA
- procedure.details: Kinase activity assay against EGFR(L858R/T790M/C797S) kinase at ATP Km concentration (33P-ATP, filter-binding)
- test.settings: 10 concentrations, 20 min preincubation, 2 h reaction at room temperature
- Protocol: The biological activity screening of the compounds will be determined repeatedly at 10 concentrations. Each sample was prepared into a solution with a concentration of 10 mM. […] a. Preparing basic buffer solution and quenching buffer solution for experimental kinase […] b. […] Radioactivity was detected by filter-binding method. Kinase activity data was expressed as the percentage of remaining kinase activity in the test sample compared to the vehicle (dimethyl sulfoxide) reaction. […]
property: pIC50
Hey, just a heads up that pIC50 is the negative log base 10 of the concentration in molar.

The cases that follow already have their pIC50 on record.
INSERT INTO measurements (query_smiles, property, reported_result) VALUES
  ('[2H]C(F)(F)Oc1cc(-n2cc3c(n2)CN(C)C3)ccc1Nc1ncc(Cl)c(Nc2ccccc2P(C)(C)=O)n1', 'pIC50', 7.86),
  ('CCc1cc(Nc2nc(Nc3ccc4nccnc4c3P(C)(C)=O)c3cccnc3n2)c(OC)cc1N1C[C@H]2CN(C)C[C@H]2C1', 'pIC50', 6.10),
  ('[2H]C(F)(F)Oc1cc(-n2cc3c(n2)CN(C)C3)c(C)cc1Nc1ncc(Cl)c(Nc2ccccc2P(C)(C)=O)n1', 'pIC50', 6.74),
  ('[2H]C(F)(F)Oc1cc(-n2cc3c(n2)CNC3)ccc1Nc1ncc(Cl)c(Nc2ccccc2P(C)(C)=O)n1', 'pIC50', 7.65),
  ('COc1cc2c(cc1Nc1ncc(Cl)c(Nc3ccccc3P(C)(C)=O)n1)CCCN2CC(=O)N1CCN(C)CC1', 'pIC50', 6.10);

Could you now look at the following compound, please?
Request the reported pIC50 associated with `CCc1cc(Nc2ncc(Br)c(Nc3ccc4nccnc4c3P(C)(C)=O)n2)c(OC)cc1N1C[C@H]2CN(C)C[C@H]2C1`
9.52

----------
- tested.system: EGFR (L858R/T790M/C797S) kinase (Homo sapiens, UniProt P00533, C797S/L858R/T790M)
- procedure.details: Kinase activity assay against EGFR(L858R/T790M/C797S) kinase at ATP Km concentration (33P-ATP, filter-binding)
- test.settings: 10 concentrations, 20 min preincubation, 2 h reaction at room temperature
Doc: threshold 100 nM (exclusive). Items with IC50 beneath it return yes (1); others return no (0).

INSERT INTO measurements (compound, tested_system, assigned_category) VALUES
  ('[2H]C(F)(F)Oc1cc(N2C3CNCC2C3)ccc1Nc1ncc(Cl)c(Nc2ccccc2P(C)(C)=O)n1', 'EGFR (L858R/T790M/C797S) kinase (Homo sapiens, UniProt P00533, C797S/L858R/T790M)', 'yes (1)'),
  ('[2H]C(F)(F)Oc1cc(N2CC3CC(C2)N3C)ccc1Nc1ncc(Cl)c(Nc2ccccc2P(C)(C)=O)n1', 'EGFR (L858R/T790M/C797S) kinase (Homo sapiens, UniProt P00533, C797S/L858R/T790M)', 'no (0)'),
  ('[2H]C(F)(F)Oc1cc(N2C[C@H]3CNC[C@H]3C2)ccc1Nc1ncc(Cl)c(Nc2ccccc2P(C)(C)=O)n1', 'EGFR (L858R/T790M/C797S) kinase (Homo sapiens, UniProt P00533, C797S/L858R/T790M)', 'no (0)'),
  ('COc1cc2c(cc1Nc1ncc(Cl)c(Nc3ccccc3P(C)(C)=O)n1)CCCN2CCN1CCN(C)CC1', 'EGFR (L858R/T790M/C797S) kinase (Homo sapiens, UniProt P00533, C797S/L858R/T790M)', 'yes (1)'),
  ('[2H]C(F)(F)Oc1cc(N2C3CC2CN(C)C3)ccc1Nc1ncc(Cl)c(Nc2ccccc2P(C)(C)=O)n1', 'EGFR (L858R/T790M/C797S) kinase (Homo sapiens, UniProt P00533, C797S/L858R/T790M)', 'no (0)'),
  ('[2H]C(F)(F)Oc1cc(N2CC3CCCNC3C2)ccc1Nc1ncc(Cl)c(Nc2ccccc2P(C)(C)=O)n1 (centres unmarked)', 'EGFR (L858R/T790M/C797S) kinase (Homo sapiens, UniProt P00533, C797S/L858R/T790M)', 'no (0)'),
  ('CCc1cc(Nc2nc(Nc3ccc4nccnc4c3P(C)(C)=O)c3ccccc3n2)c(OC)cc1N1C[C@H]2CN(C)C[C@H]2C1', 'EGFR (L858R/T790M/C797S) kinase (Homo sapiens, UniProt P00533, C797S/L858R/T790M)', 'no (0)'),
  ('[2H]C(F)(F)Oc1cc(N2CC3CCN(C)C3C2)ccc1Nc1ncc(Cl)c(Nc2ccccc2P(C)(C)=O)n1 (centres unmarked)', 'EGFR (L858R/T790M/C797S) kinase (Homo sapiens, UniProt P00533, C797S/L858R/T790M)', 'yes (1)');

I'd appreciate it if you could check whether `COc1cc2c(cc1Nc1ncc(Cl)c(Nc3ccccc3P(C)(C)=O)n1)CCCN2C(=O)CN1CCN(C)CC1` has IC50 smaller than 100 nM.
yes (1)

Answer whether the compound `[2H]C(F)(F)Oc1cc(N2C[C@H]3CN(C)C[C@H]3C2)ccc1Nc1ncc(Cl)c(Nc2ccccc2P(C)(C)=O)n1` has IC50 strictly less than 100 nM
yes (1)

In plain terms, does [2H]C(F)(F)Oc1cc(N2CC3CCNC3C2)ccc1Nc1ncc(Cl)c(Nc2ccccc2P(C)(C)=O)n1 (centres unmarked) come in under 100 nM for IC50?
yes (1)

Problem: For the compound `[2H]C(F)(F)Oc1cc(N2C[C@H]3COC[C@H]3C2)ccc1Nc1ncc(Cl)c(Nc2ccccc2P(C)(C)=O)n1` , is IC50 under 100 nM?
yes (1)

Regarding `[2H]C(F)(F)Oc1cc(N2CC3CC(C2)N3)ccc1Nc1ncc(Cl)c(Nc2ccccc2P(C)(C)=O)n1` , kindly confirm whether its IC50 is beneath 100 nM.
yes (1)

For this compound, is IC50 lower than 100 nM? `[2H]C(F)(F)Oc1cc(-n2ncc3c2CN(C)C3)c(C)cc1Nc1ncc(Cl)c(Nc2ccccc2P(C)(C)=O)n1`
no (0)
